# credit: patent US8097590B2

# Target entity: human MC1 receptor (Homo sapiens, UniProt Q01726)
# Construct: endogenous in cells; host or cells: M4Be human melanoma (melanocyte) cell line
# Sequence (Q01726 whole entry): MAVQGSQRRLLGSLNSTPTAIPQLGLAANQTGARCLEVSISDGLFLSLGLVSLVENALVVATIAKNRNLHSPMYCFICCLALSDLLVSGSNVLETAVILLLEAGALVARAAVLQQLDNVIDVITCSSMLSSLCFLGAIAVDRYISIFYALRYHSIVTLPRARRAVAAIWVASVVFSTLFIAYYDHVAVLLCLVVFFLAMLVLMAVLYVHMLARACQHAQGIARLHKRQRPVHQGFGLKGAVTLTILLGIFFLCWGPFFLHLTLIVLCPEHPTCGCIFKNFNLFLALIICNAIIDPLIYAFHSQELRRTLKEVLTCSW
# Method: Inhibition of AMPc production induced by α-MSH on M4Be cells
# Assay type: cell-based
# Setup conditions: M4Be human cell line, 5×10^−8 M α-MSH, 10 minutes at 37° C., experiment 1; read-out: CI50 (μM) exp1
Residues, ends and D or L forms follow the SMILES beside them. *: point of attachment. Palmitoyl = CCCCCCCCCCCCCCCC(=O)*
Measured quantity: IC50 (µM)

Some compounds with known IC50 results, for comparison:
1. CCCCCCCCCCCCCCCC(=O)N[C@@H](CCCNC(=N)N)C(=O)N[C@@H](CCCCN)C(N)=O [Compound 50, Palm-Arg-Lys-NH2] (Palmitoyl-Arg-Lys-NH2) : 48
2. CCCCCCCCCCCCCCCC(=O)N[C@@H](CCCNC(=N)N)C(=O)N1CCC[C@H]1C(N)=O [Compound 49, Palm-Arg-Pro-NH2] (Palmitoyl-Arg-Pro-NH2) : 20

[P] CCCCCCCCCCCCCCCC(=O)N[C@@H](CO)C(=O)N1CCC[C@H]1C(N)=O [Compound 125, Palm-Ser-Pro-NH2] (Palmitoyl-Ser-Pro-NH2)
[Q] CCCCCCCCCCCCCCCC(=O)N[C@@H](CCCNC(=N)N)C(=O)N[C@@H](Cc1c[nH]cn1)C(N)=O [Compound 39, Palm-Arg-His-NH2] (Palmitoyl-Arg-His-NH2)
Incoming: // compare measured IC50, left P , right Q , return larger Selection: enter the item's label.
Outgoing: P
